- Test system: SASKR (russian thistle)
- ASSAY_NOTES: Pre-emergence herbicidal activity, cool season
- Type: in vivo, Salsola kali
- CONDITION_DETAILS: lowest tested rate with 80% or greater inhibition; rates 300, 100, 30, 10 g/ha; about 14 days
READOUT_LABEL: Pre-emergence activity GR80, SASKR

Reference set, count: 4
1) CON(C)C(=O)n1cnc(S(=O)(=O)C(F)(F)C(F)F)n1 [empty]
2) C=C(Br)CC(F)(F)S(=O)(=O)c1ncn(C(=O)N(CC)CC)n1 100 g/ha
3) CCN(CC)C(=O)n1cnc(S(=O)(=O)C(F)(F)SCCOC)n1 [empty]
4) CN(Cc1ccccc1)C(=O)n1cnc(S(=O)(=O)C(F)(F)Cl)n1 [empty]

Field: Pre-emergence activity GR80, SASKR (SASKR (russian thistle)). Entry: CCN(CC)C(=O)n1cnc(S(=O)(=O)C(F)(F)SCc2ccccc2)n1 100 g/ha
